- Experiment: Aqueous phase solubility as a function of pH / medium
- Format: physicochemical
- Particulars: 0.1M sodium lauryl sulphate, aqueous with cosolvent or surfactant or cyclodextrin
Reported Metric: solubility (µg/mL)
Answers are plain numbers, in µg/mL.

[ask] So what's the measured solubility for this one? CC(C)(Oc1ccc(C(=O)c2ccc(Cl)cc2)cc1)C(=O)O
[reply] 810

----------
- Experiment: Aqueous phase solubility as a function of pH / medium
- Format: physicochemical
- Particulars: aqueous buffer; Phosphate buffer pH = 6.5
Reported Metric: solubility (µg/mL)
Answers are plain numbers, in µg/mL.

[ask] So what's the measured solubility for this one? CC(C)(Oc1ccc(C(=O)c2ccc(Cl)cc2)cc1)C(=O)O [fenofibric acid]
[reply] 1060

Each recorded value in this set is attributed to patent US20190247343A1.
